meta.source: patent US10105357B2

System: TOV-21G
Assay details: Cell viability analysis, ovarian cancer TOV-21G
Format: cell-based, human
Measurement parameters: Homo sapiens, TOV21G, 72 h; TOV-21G; repeated experiment; read-out: The results of antibiotic drug inhibiting cancer cell lines (cell viability analysis), TOV-21G
Where a name gives a salt, the structure may show the parent alone.
Each record here notes measured viability at 10 µM.
Numeric answer only, unit % assumed.

Output measured viability at 10 µM for this item: CN(C)CCC=C1c2ccccc2CCc2ccccc21 [Amitriptyline HCl] 118

Output measured viability at 10 µM for this item: `CC(C)(C)CC(C)(C)c1ccc(O)c(Cc2ccc(Cl)cc2Cl)c1` 73.1

---

Test system: MKN-45 (Gastric Adenocarcinoma)
Assay details: Cell viability analysis, gastric cancer MKN-45
Type: cell-based, human
Measurement parameters: drug 10 μM, 72 hours, WST-1, OD450 nm
Endpoint: cell viability (survival rate), MKN-45
Lab note: jot down the number only; don't add units.

Output measured cell viability (survival rate), MKN-45 for this item: C[C@@H]1[C@H](O)[C@@H](C)/C=C/C=C/CC/C=C/C=C/C=C/C=C/C(O[C@H]2O[C@H](C)[C@@H](O)[C@H](N)[C@@H]2O)CC2O[C@](O)(CC(O)C(O)CCC(O)CC(O)CC(O)CC(=O)O[C@H]1C)CC(O)C2C(=O)O (some centres unmarked) 44.7

More entries:
Output measured cell viability (survival rate), MKN-45 for this item: O=C([O-])C(O)[C@H](O)[C@@H](O)[C@H](O)[C@H](O)CO.O=C([O-])C(O)[C@H](O)[C@@H](O)[C@H](O)[C@H](O)CO.[Ca+2] (some centres unmarked) [Calcium Gluceptate] 74.23
